Tested on: HCEC cells
EXPERIMENTAL PROTOCOL: cells
Format: cell-based
EXPERIMENTAL CONDITIONS: Homo sapiens, 4 hrs co-incubation then 24 h fresh medium, MTT

{"ENTRY SMILES": "N[C@@H](Cc1ccc(N(CCCl)CCCl)cc1)C(=O)O", "IC50": "100 to 200 µM"}

---

Test system: HCEC cells
EXPERIMENTAL PROTOCOL: cells
Type: cell-based
EXPERIMENTAL CONDITIONS: 4 hrs co-incubation then 24 h fresh medium, MTT, listed as Mel

{"MOLECULE": "N[C@@H](Cc1ccc(N(CCCl)CCCl)cc1)C(=O)O [melphalan]", "UNIT STRING": "µM", "IC50": 113}

---

Tested on: ARPE-19 cells
Assay type: cell-based
EXPERIMENTAL CONDITIONS: ARPE-19, 4 hrs co-incubation then 24 h fresh medium, MTT
pIC50: −log10 of the molar value.

{"ENTRY SMILES": "N[C@@H](Cc1ccc(N(CCCl)CCCl)cc1)C(=O)O", "pIC50": "3.70 to 4.00"}

---

EXPERIMENTAL PROTOCOL: Solubility assay in normal saline (HPLC)
Type: physicochemical
EXPERIMENTAL CONDITIONS: saline or isotonic, thermodynamic from solid, 37° C., read-out: Solubility of drug

{"COMPOUND": "N[C@@H](Cc1ccc(N(CCCl)CCCl)cc1)C(=O)O [melphalan]", "solubility thermodynamic at 24 h": "< 1 µg/mL"}
